# test_method_notes: Partition coefficient (logD), shake flask method
# Assay type: physicochemical
# experimental_conditions: n-octanol / pH 7.4 phosphate buffer
# Protocol: The partition coefficient (logD) at pH 7.4 of VBJ103 was determined using the shake flask method by Absorption Systems (Exton, PA, USA). The buffer was prepared by combining 50 ml of 0.2-M solution of KH2PO4 with 150 ml of dH2O and then adjusting to pH 7.4 with 10-N NaOH. In a single incubation, 15 μl of a 10-mM DMSO solution of each test article was added to test tubes which contained 0.75 ml of n-octanol and 0.75 ml of pH 7.4 phosphate buffer. […]
property_measured: logD at 1 h

Entry C[C@]12CC[C@H]3[C@@H](CCC4=CC(=O)CC[C@@]43C)[C@@H]1CC[C@@H]2O [testosterone, reference compound] has what logD at 1 h?
3.09
